Hey, just so you know, these numbers are from patent US8168651B2.

Items are presented alongside their recorded inhibition at 0.5 µM.
- study_system: recombinant human PIM1 (Homo sapiens (Human))
- Sequence (P11309 whole entry): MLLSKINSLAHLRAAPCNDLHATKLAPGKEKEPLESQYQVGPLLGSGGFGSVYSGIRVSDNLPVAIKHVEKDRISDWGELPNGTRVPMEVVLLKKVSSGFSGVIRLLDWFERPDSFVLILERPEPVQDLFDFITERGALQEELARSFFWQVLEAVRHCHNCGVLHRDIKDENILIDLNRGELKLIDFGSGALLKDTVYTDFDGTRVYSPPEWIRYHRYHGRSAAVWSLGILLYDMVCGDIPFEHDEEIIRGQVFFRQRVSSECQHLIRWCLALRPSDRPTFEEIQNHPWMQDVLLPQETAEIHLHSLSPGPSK
- measurement_protocol: PIM-1 kinase activity in cell-free in vitro assay
- Type: biochemical
- assay_setup: 500 nM compound, cell-free; read-out: PIM-1: % inh 500 nM
measured_parameter: inhibition at 0.5 µM (%)

> print(dat)
                                    molecule    measured.parameter  unit.abbrev  observed
 1       O=C(O)c1ccc2c(c1)nc(NC1CC1)c1ccsc12  inhibition at 0.5 µM            %      37.4
 2  O=C(O)c1ccc2c(c1)nc(NCCc1cccc(F)c1)c1ccncc12 [drawing 1560]  inhibition at 0.5 µM            %        74
 3   CN(c1ccccc1)c1nc2cc(C(=O)O)ccc2c2sccc12  inhibition at 0.5 µM            %      61.4
 4  O=C(O)c1ccc2c(c1)nc(Nc1ccc(F)c(Cl)c1)c1ccsc12  inhibition at 0.5 µM            %      80.8
 5  O=C(O)c1ccc2c(c1)nc(Nc1cccc(C(=O)N3CCOCC3)c1)c1ccsc12  inhibition at 0.5 µM            %      46.4
 6  c1ccc(CNc2nc3cc(-c4nnn[nH]4)ccc3c3sccc23)cc1  inhibition at 0.5 µM            %     -21.2
 7         CN(C)CCNc1nc2cc(C#N)ccc2c2cnccc12  inhibition at 0.5 µM            %     -11.5
 8  O=C(O)c1ccc2c(c1)nc(NCCc1ccccc1)c1ccncc12 [drawing 1511]  inhibition at 0.5 µM            %      80.9
 9  COC(=O)c1ccc2c(c1)nc(Nc1ccc(F)c(Cl)c1)c1ncncc12  inhibition at 0.5 µM            %     -17.9
10  O=C(O)c1ccc2c(c1)nc(Nc1ccc(F)c(Cl)c1)c1ncncc12  inhibition at 0.5 µM            %      54.8
11  Fc1ccc(Nc2nc3cc(-c4nnn[nH]4)ccc3c3sccc23)cc1  inhibition at 0.5 µM            %      74.3
12           c1ccc(Nc2nc3ccccc3c3ccccc23)cc1  inhibition at 0.5 µM            %     -23.9
13  CC(=O)N1CCN(C(=O)c2cccc(Nc3nc4cc(C(=O)O)ccc4c4sccc34)c2)CC1  inhibition at 0.5 µM            %      20.8
14  O=C(NC1CC1)c1cccc(Nc2nc3cc(-c4nnn[nH]4)ccc3c3sccc23)c1  inhibition at 0.5 µM            %      46.8
15  CNC(=O)c1cccc(Nc2nc3cc(-c4nnn[nH]4)ccc3c3sccc23)c1  inhibition at 0.5 µM            %      81.7
16  FC(F)(F)Oc1ccc(Nc2nc3cc(-c4nnn[nH]4)ccc3c3sccc23)cc1  inhibition at 0.5 µM            %      32.5
17  c1cc2c(Nc3ccc4c(c3)OCCO4)nc3cc(-c4nnn[nH]4)ccc3c2s1  inhibition at 0.5 µM            %      26.7
18  CN(C)CCNc1nc2cc(C(=O)O)ccc2c2ccccc12 [drawing 1391]  inhibition at 0.5 µM            %        35
